Data provenance is patent US8129355B2.

# target: Gal4 DBD/AaEcR (DEF) with VP16-βRXR-E (Aedes aegypti, UniProt P49880)
# Construct: The wildtype D, E, and F domains from mosquito Aedes aegypti EcR (“AaEcR-DEF”); expressed in transfected cells; host or cells: 3T3 cells, transient transfection (Superfect)
# Sequence (P28704 286-520 A311G/G315S/G445S/I449V): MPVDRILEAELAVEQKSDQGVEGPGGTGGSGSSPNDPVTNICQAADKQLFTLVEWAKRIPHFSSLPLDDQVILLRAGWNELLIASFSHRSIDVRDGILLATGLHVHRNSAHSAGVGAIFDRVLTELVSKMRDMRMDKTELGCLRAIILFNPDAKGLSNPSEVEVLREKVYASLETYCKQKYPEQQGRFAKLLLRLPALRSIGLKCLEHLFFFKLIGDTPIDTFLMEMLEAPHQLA
# Sequence (P49880 405-776): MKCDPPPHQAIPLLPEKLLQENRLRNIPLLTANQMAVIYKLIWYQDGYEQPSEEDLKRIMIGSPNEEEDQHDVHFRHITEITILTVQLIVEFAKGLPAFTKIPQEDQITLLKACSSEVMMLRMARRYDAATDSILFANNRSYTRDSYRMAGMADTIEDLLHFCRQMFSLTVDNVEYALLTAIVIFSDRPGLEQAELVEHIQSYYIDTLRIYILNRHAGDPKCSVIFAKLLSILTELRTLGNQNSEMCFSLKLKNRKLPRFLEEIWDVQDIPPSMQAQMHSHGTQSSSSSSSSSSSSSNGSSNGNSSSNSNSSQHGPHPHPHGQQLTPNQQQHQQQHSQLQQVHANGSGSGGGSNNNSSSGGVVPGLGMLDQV
# method.description: cell-based
# Type: cell-based
# assay.setup: maximum fold induction at any concentration relative to that of GS-E ligand
Lab note: anything with AA_3T3 Rel Max FI below 0.02 is marked yes; values at 0.02 or higher are marked no.

Would you please look over these solved cases?
[
  {
    "compound": "Cc1cc(C)cc(C(=O)C2(NC(=O)c3ccccc3C)CCCC2)c1 [Example 89]",
    "answer.label": "yes"
  },
  {
    "compound": "CCc1c(OC)cccc1C(=O)NC1(C(=O)c2cc(C)cc(C)c2)CCCCC1 [Example 143]",
    "answer.label": "no"
  }
]

Problem: Does the reported AA_3T3 Rel Max FI of CCC(CC)(NC(=O)c1cccc(OC)c1C)C(=O)c1ccccc1 [Example 78] stay below 0.02?
Result: yes

Problem: Param item: COc1cccc(C(=O)NC2(C(=O)c3ccc(C)cc3)CCCC2)c1C [Example 79]
Result: yes
